Measured pIC50 values are reported for all entries that follow.
- assayed.system: human intracellular domain of KDR (VEGF Receptor-2) (Homo sapiens)
- Construct: A fusion protein containing the intracellular domain (amino acids 793 to 1357) of the KDR and N-terminally tagged to GST; E. coli BL21 (pGEX-4T-1) for GST-PLCγ
- Sequence (P35968 794-1356 limits assumed): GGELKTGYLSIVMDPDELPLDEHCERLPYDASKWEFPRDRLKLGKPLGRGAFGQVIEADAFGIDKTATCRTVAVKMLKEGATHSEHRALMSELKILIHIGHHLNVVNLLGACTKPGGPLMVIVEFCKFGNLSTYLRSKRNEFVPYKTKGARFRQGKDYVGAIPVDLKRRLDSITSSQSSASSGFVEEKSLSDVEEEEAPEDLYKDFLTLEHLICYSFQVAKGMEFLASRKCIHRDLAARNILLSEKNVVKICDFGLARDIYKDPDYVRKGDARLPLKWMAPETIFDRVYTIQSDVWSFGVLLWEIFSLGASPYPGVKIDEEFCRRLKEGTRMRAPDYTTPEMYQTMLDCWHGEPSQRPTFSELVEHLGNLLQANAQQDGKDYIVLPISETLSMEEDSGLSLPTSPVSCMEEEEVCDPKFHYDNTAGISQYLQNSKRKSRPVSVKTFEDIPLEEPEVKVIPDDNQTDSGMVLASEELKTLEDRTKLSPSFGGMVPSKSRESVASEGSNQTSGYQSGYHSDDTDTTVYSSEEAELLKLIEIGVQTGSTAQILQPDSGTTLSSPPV
- method: In vitro KDR kinase assay
- condition.label: IC50 as molar concentration; GST-KDR-cyt, substrate phospholipase Cγ, ATP 100 μM, 30 min room temperature, time-resolved fluorometry
# pIC50: negative log10 of molar concentration; output just the value

Assign pIC50 to the following record: N#Cc1ccc(CONC(=O)c2ccccc2NCc2ccncc2)c(Cl)c1 [Compound 78] 7.80

Assign pIC50 to the following record: CN(C)CCNC(=O)c1cccc(CONC(=O)c2ccccc2NCc2ccncc2)c1 [Compound 96] 7.10

Assign pIC50 to the following record: O=C(NOCc1cccc(Cl)c1Cl)c1ccccc1NCc1ccncc1 [Compound 18] 7.70

Assign pIC50 to the following record: N#Cc1ccc(CONC(=O)c2ccccc2NCc2ccnc(N)c2)cc1 [Compound 206] 7.40

Assign pIC50 to the following record: CC(C)(C)CONC(=O)c1ccccc1NCc1ccncc1 [Compound 116] 7.40

More entries:
Assign pIC50 to the following record: O=C(NOCc1ccc(Cl)c(Cl)c1)c1ccccc1NCc1ccncc1 [Compound 15] 7.30

Assign pIC50 to the following record: O=C(NOCc1ccc(F)c(C(F)(F)F)c1)c1ccccc1NCc1ccncc1 [Compound 61] 7.80

Assign pIC50 to the following record: O=C(NOCC1CCCCCCC1)c1ccccc1NCc1ccncc1 [Compound 122] 8.10

Assign pIC50 to the following record: O=C(O)CNC(=O)Nc1cc(CNc2ccccc2C(=O)NOCC2CCCC2)ccn1 [compound 217] 8.10
